- Tested on: 3×MBT domain of L3MBTL1
- Method notes: Triple SILAC pull-down, 3xMBT/3xMBTD355N ratio (cytoplasmic, nuclear and chromatin fractions of 293T cells);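 note: proteins quantified with MaxQuant, requiring at least two unique peptides and quantification in both label directions, normalized to the mean of proteins from a digested loading control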
- Format: binding, human
- Condition info: SILAC ratio 3xMBT vs 3xMBTD355N pull-down, 293T cells; experiment with UNC0638 in heavy SILAC media; all values in log base 2
The label Fulfilled is reserved for 3xMBT/D355N UNC Heavy strictly under 2 log base 2; Not fulfilled covers values equal to or above it.

• DEK (protein, UniProt P35659 2-375, looked up) Protein DEK: SASAPAAEGEGTPTQPASEKEPEMPGPREESEEEEDEDDEEEEEEEKEKSLIVEGKREKKKVERLTMQVSSLQREPFTIAQGKGQKLCEIERIHFFLSKKKTDELRNLHKLLYNRPGTVSSLKKNVGQFSGFPFEKGSVQYKKKEEMLKKFRNAMLKSICEVLDLERSGVNSELVKRILNFLMHPKPSGKPLPKSKKTCSKGSKKERNSSGMARKAKRTKCPEILSDESSSDEDEKKNKEESSDDEDKESEEEPPKKTAKREKPKQKATSKSKKSVKSANVKKADSSTTKKNQNSSKKESESEDSSDDEPLIKKLKKPPTDEELKETIKKLLASANLEEVTMKQICKKVYENYPTYDLTERKDFIKTTVKELIS = Not fulfilled
• DNAJC9 (protein, UniProt Q8WXX5 1-260, looked up) DnaJ homolog subfamily C …: MGLLDLCEEVFGTADLYRVLGVRREASDGEVRRGYHKVSLQVHPDRVGEGDKEDATRRFQILGKVYSVLSDREQRAVYDEQGTVDEDSPVLTQDRDWEAYWRLLFKKISLEDIQAFEKTYKGSEEELADIKQAYLDFKGDMDQIMESVLCVQYTEEPRIRNIIQQAIDAGEVPSYNAFVKESKQKMNARKRRAQEEAKEAEMSRKELGLDEGVDSLKAAIQSRQKDRQKEMDNFLAQMEAKYCKSSKGGGKKSALKKEKK = Not fulfilled
• TK1 (protein, UniProt P04183 2-234, looked up) Thymidine kinase, cytosolic: SCINLPTVLPGSPSKTRGQIQVILGPMFSGKSTELMRRVRRFQIAQYKCLVIKYAKDTRYSSSFCTHDRNTMEALPACLLRDVAQEALGVAVIGIDEGQFFPDIVEFCEAMANAGKTVIVAALDGTFQRKPFGAILNLVPLAESVVKLTAVCMECFREAAYTKRLGTEKEVEVIGGADKYHSVCRLCYFKKASGQPAGPDNKENCPVPGKPGEAVAARKLFAPQQILQCSPAN = Not fulfilled
• RPRD1A (protein, UniProt Q96P16 2-312, looked up) Regulation of nuclear …: SAFSEAALEKKLSELSNSQQSVQTLSLWLIHHRKHSRPIVTVWERELRKAKPNRKLTFLYLANDVIQNSKRKGPEFTKDFAPVIVEAFKHVSSETDESCKKHLGRVLSIWEERSVYENDVLEQLKQALYGDKKPRKRTYEQIKVDENENCSSLGSPSEPPQTLDLVRALQDLENAASGDAAVHQRIASLPVEVQEVSLLDKITDKESGERLSKMVEDACMLLADYNGRLAAEIDDRKQLTRMLADFLRCQKEALAEKEHKLEEYKRKLARVSLVRKELRSRIQSLPDLSRLPNVTGSHMHLPFAGDIYSED = Not fulfilled
• CSRP2 (protein, UniProt Q16527 1-193, looked up) Cysteine and glycine-rich …: MPVWGGGNKCGACGRTVYHAEEVQCDGRSFHRCCFLCMVCRKNLDSTTVAIHDEEIYCKSCYGKKYGPKGYGYGQGAGTLNMDRGERLGIKPESVQPHRPTTNPNTSKFAQKYGGAEKCSRCGDSVYAAEKIIGAGKPWHKNCFRCAKCGKSLESTTLTEKEGEIYCKGCYAKNFGPKGFGYGQGAGALVHAQ = Fulfilled
